Just for reference, patent US11655241B2 is where these values come from.

Biological target: human orexin type 2 receptor (Homo sapiens, UniProt O43614)
Construct: expressed in transfected cells
Sequence (O43614 whole entry): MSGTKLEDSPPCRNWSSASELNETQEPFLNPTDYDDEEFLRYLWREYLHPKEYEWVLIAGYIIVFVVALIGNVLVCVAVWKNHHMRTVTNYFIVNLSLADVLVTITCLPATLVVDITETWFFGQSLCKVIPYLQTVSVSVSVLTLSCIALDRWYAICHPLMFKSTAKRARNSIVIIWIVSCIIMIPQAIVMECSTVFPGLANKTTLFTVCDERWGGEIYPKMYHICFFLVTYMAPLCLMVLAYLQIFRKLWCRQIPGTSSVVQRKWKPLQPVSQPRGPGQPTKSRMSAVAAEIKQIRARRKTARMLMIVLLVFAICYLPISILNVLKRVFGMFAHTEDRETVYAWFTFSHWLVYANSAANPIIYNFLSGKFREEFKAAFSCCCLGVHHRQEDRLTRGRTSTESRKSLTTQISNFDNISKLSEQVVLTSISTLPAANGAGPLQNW
Assay: Measurement of orexin type 2 receptor agonist activity (calcium fluorescence, Fluo-4 AM, FDSS)
Assay type: cell-based
Details: compound at 3 μM; CHO cells forcibly expressing human OX2 receptor; DMSO = 0%, orexin A (human) 10 nM = 100%
READOUT_KIND: OX2R agonist activity (3 μM, %)

Worked examples, 10 compounds total:
| COMPOUND | OBSERVED_VALUE |
| --- | --- |
| CN(C)C(=O)C(=O)N[C@H]1CCN(C(=O)N2CCC2)[C@H]1Cc1cccc(-c2cccc(F)c2)c1 | 101 |
| CN(C)C(=O)C(=O)NC1CCCN(C(=O)C2CCC2)C1Cc1cccc(-c2cccc(F)c2)c1 (centres unmarked) | 80 |
| CN(C)C(=O)C(=O)N[C@H]1CCN(C(=O)C2(C#N)CCC2)[C@H]1Cc1cccc(-c2cccc(F)c2)c1 | 86 |
| CN(C)C(=O)C(=O)N[C@H]1CCN(C(=O)C2(O)CCC2)[C@H]1Cc1cccc(-c2cccc(F)c2)c1 | 101 |
| COC1(C(=O)N[C@H]2CCN(C(=O)C3CCC3)[C@H]2Cc2cccc(-c3cccc(F)c3)c2)CC1 (relative stereo) | 93 |
| CN(C)C(=O)C(=O)N[C@H]1CCN(C(=O)C2CCC2)[C@H]1Cc1csc(-c2cccc(F)c2)n1 | 82 |
| O=C(N[C@H]1CCN(C(=O)N2CCC2)[C@H]1Cc1cccc(-c2cccc(F)c2)n1)[C@@H]1CCCO1 | 59 |
| COC1(C(=O)N[C@H]2CCN(C(=O)C3CCC3)[C@H]2Cc2csc(-c3cccc(F)c3)n2)CC1 | 60 |
| O=C(N[C@H]1CCN(C(=O)C2CCC2)[C@H]1Cc1cccc(-c2cccc(F)c2)c1)[C@@H]1CCCO1 | 97 |
| O=C(N[C@H]1CCN(C(=O)C2CCC2)[C@H]1Cc1csc(-c2cccc(F)c2)n1)[C@@H]1CCCO1 | 65 |

A = CN(C)C(=O)C(=O)N[C@H]1CCN(C(=O)C(C)(C)CO)[C@H]1Cc1cccc(-c2cccc(F)c2)c1
B = COC1(C(=O)N[C@H]2CCN(C(=O)N3CCC3)[C@H]2Cc2cccc(-c3cccc(F)c3)n2)CC1
C = COC(=O)N[C@H]1CCN(C(=O)C2CCC2)[C@H]1Cc1cccc(-c2cccc(F)c2)c1 (relative stereo)
Q. Let's sort these by OX2R agonist activity (3 μM, %), smallest first. Go ahead? The labels, placed in the requested order, form the answer.
A. C, B, A
(C: 33%, B: 54%, A: 79%)

* * *

Biological target: human orexin type 2 receptor (Homo sapiens, UniProt O43614)
Construct: expressed in transfected cells
Test: Measurement of orexin type 2 receptor agonist activity (calcium fluorescence, Fluo-4 AM, FDSS)
Type: cell-based
Settings: compound at 3 μM; CHO cells forcibly expressing human OX2 receptor; DMSO = 0%, orexin A (human) 10 nM = 100%
READOUT_KIND: OX2R agonist activity (3 μM, %)

| MOLECULE | OX2R agonist activity (3 μM, %) |
| --- | --- |
| CC(C)(CO)C(=O)N1CC[C@H](NC(=O)[C@@H]2CCCO2)[C@@H]1Cc1cccc(-c2cccc(F)c2)c1 [Example 46] | 67 |
| O=C(C1CCC1)N1CC[C@H](NC(=O)C2(F)CCC2)[C@@H]1Cc1cccc(-c2cccc(F)c2)c1 (relative stereo) [Example 10] | 79 |
| O=C(N[C@H]1CCN(C(=O)C2(F)CCC2)[C@H]1Cc1cccc(-c2cccc(F)c2)c1)[C@@H]1CCCO1 [Example 43] | 62 |
| O=C(CO)N[C@H]1CCN(C(=O)C2CCC2)[C@H]1Cc1cccc(-c2cccc(F)c2)c1 (relative stereo) [Example 6] | 60 |
